target: recombinant eIF4E (Homo sapiens (Human)); assay: Fluorescence polarization competition assay for eIF4E binding potency; details: fluorescence polarization competition, 75 nM recombinant eIF4E, 20 nM EDA-m7GDP-ATTO-550; IC50 class; read-out: elF4E FP
pIC50: −log10 of the molar value.
Give measured pIC50 for each item. Keep answers brief.

The reported value for `Cc1nc2cc(C(F)(F)F)c(N3CC4(C3)CN(C3CC3)C4)c(C#N)c2c(=O)n1CCCc1ccc(Cl)cc1-c1ccnc2c(C(=O)O)csc12` in terms of pIC50 is > 7.30

The reported value for `Cc1cc(-c2cc(Cl)ccc2OCCn2c(C)nc3cc(Cl)c(-c4cccnc4C)c(C#N)c3c2=O)c2scc(C(=O)O)c2n1` in terms of pIC50 is > 7.30

The reported value for `Cc1cc(-c2cc(Cl)ccc2OCCn2c(C)nc3cc(S(C)(=O)=O)c(N4CCN(C)CC4)cc3c2=O)c2scc(C(=O)O)c2n1` in terms of pIC50 is 6.00 to 7.30

The reported value for `Cc1nc2ccc(C#N)c(C#N)c2c(=O)n1CCOc1ccc(Cl)cc1-c1ccnc2c(C(=O)O)csc12` in terms of pIC50 is > 7.30

The reported value for `Cc1cc(-c2cc(Cl)ccc2OCCn2c(C)nc3cc(C(F)(F)F)c(-c4ccncn4)nc3c2=O)c2scc(C(=O)O)c2n1` in terms of pIC50 is > 7.30

* * *

target: recombinant eIF4E (Homo sapiens (Human), UniProt P06730); assay: Fluorescence polarization competition assay for eIF4E binding potency; details: inhibition of eIF4E/EDA-m7GDP-ATTO-550 binding by 50%; Table 4B calculated values; read-out: IC50
Sequence (P06730 whole entry): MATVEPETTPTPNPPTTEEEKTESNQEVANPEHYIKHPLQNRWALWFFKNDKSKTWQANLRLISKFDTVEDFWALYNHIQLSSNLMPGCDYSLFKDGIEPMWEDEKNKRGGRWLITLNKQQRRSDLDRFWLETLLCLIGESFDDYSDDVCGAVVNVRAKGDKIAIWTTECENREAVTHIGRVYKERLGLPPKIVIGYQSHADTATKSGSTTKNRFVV
Label Met when IC50 is strictly below 20 nM; otherwise label Not met.

Find out if reported IC50 for `Cc1cc(-c2cc(Cl)ccc2OCCn2c(C)nc3cnc(N4[C@@H]5CC[C@H]4CN(C)C5)c(C#N)c3c2=O)c2sc(C)c(C(=O)O)c2n1` is less than 20 nM
Not met

Find out if reported IC50 for `Cc1cc(-c2cc(Cl)ccc2OCCn2c(C)nc3cc(C(F)(F)F)c(-c4scnc4C)nc3c2=O)c2scc(C(=O)O)c2n1` is less than 20 nM
Met

Find out if reported IC50 for `Cc1cc(-c2cc(Cl)ccc2OCCn2c(C)nc3cc(C(F)(F)F)c(CN4C[C@@H](C)O[C@@H](C)C4)c(C#N)c3c2=O)c2scc(C(=O)O)c2n1` is less than 20 nM
Met

Find out if reported IC50 for `Cc1cc(-c2cc(Cl)ccc2OCCn2c(C)nc3cnc(N4CC(OC(C)(C)C)C4)c(C#N)c3c2=O)c2scc(C(=O)O)c2n1` is less than 20 nM
Not met

Find out if reported IC50 for `Cc1nc2c(F)c(C(F)(F)F)cc(C#N)c2c(=O)n1CCOc1ccc(Cl)cc1-c1ccnc2c(C(=O)O)csc12` is less than 20 nM
Not met

Find out if reported IC50 for `Cc1cc(-c2cc(Cl)ccc2OCCn2c(C)nc3cc(Cl)c(N4CCC4(C)C)c(C#N)c3c2=O)c2scc(C(=O)O)c2n1` is less than 20 nM
Met

* * *

Molecular target: recombinant eIF4E (Homo sapiens (Human))
Test: Fluorescence polarization competition assay for eIF4E binding potency
Settings: inhibition of eIF4E/EDA-m7GDP-ATTO-550 binding by 50%; Table 4B calculated values; read-out: IC50
Experimental: Compounds were screened for eIF4E binding potency using a fluorescence polarization competition assay. All binding reactions were performed in fluorescence polarization buffer (FPB) containing 20 mM Tris pH 7.5, 100 mM NaCl, 1 mM DTT, and 0.02% Tween-20. Final binding reactions contained 75 nM recombinant eIF4E (Beryllium, custom order), 20 nM EDA-m^7GDP-ATTO-550 (Jena Bioscience, NU-827-550) and varying concentrations of the inhibitory compound of interest. […]
Give measured pIC50 for each item. Keep answers brief.
Scale: negative log10 of molar concentration, which is what pIC50 denotes.

The reported value for Cc1cc(-c2cc(Cl)ccc2OCCn2c(C)nc3cnc(C4(C(F)(F)F)CC4)c(C#N)c3c2=O)c2scc(C(=O)O)c2n1 [compound 839] in terms of pIC50 is 7.53

The reported value for Cc1nc2cc(C(F)(F)F)cc(C#N)c2c(=O)n1CCOc1ccc(Cl)cc1-c1ccnc2cc(C(=O)O)sc12 [compound 199] in terms of pIC50 is 6.84

The reported value for Cc1nc2cc(Cl)c(CN(C)C)c(C#N)c2c(=O)n1CCOc1ccc(Cl)cc1-c1ccnc2c(C(=O)O)csc12 [compound 509] in terms of pIC50 is 6.90

The reported value for Cc1cc(-c2cc(Cl)ccc2C#CCn2c(C)nc3cc(C(F)(F)F)c(CN(C)C)c(C#N)c3c2=O)c2scc(C(=O)O)c2n1 [compound 562] in terms of pIC50 is 8.06

The reported value for N#Cc1cc2c(=O)n(CCOc3ccc(Cl)cc3-c3nc(C(=O)O)cs3)cnc2cn1 [compound 81] in terms of pIC50 is 5.37

The reported value for Cc1nc2cc(C(F)(F)F)cc(C#N)c2c(=O)n1CCOc1ccc(Cl)cc1-c1ccnc2c(C(=O)O)csc12 [Compound 272] in terms of pIC50 is 7.64

The reported value for CCc1nc(C)c2nc(C)n(CCOc3ccc(Cl)cc3-c3ccnc4c(C(=O)O)csc34)c(=O)c2c1C#N [compound 851] in terms of pIC50 is 8.22

The reported value for Cc1cc(-c2cc(Cl)ccc2OCCn2c(C)nc3cc(C)c(C)c(C#N)c3c2=O)c2scc(C(=O)O)c2n1 [compound 628] in terms of pIC50 is 7.55

The reported value for Cc1nc2ccc(OC(F)(F)F)c(C#N)c2c(=O)n1CCOc1ccc(Cl)cc1-c1ccnc2c(C(=O)O)csc12 [compound 406] in terms of pIC50 is 7.94

The reported value for Cc1cc(-c2cc(Cl)ccc2OCCn2c(C)nc3cc(C(F)(F)F)c(C4CC4)c(C#N)c3c2=O)c2scc(C(=O)O)c2n1 [compound 1049] in terms of pIC50 is 8.03

The reported value for Cc1cc(-c2cc(Cl)ccc2OCCn2c(C)nc3cc(C(F)(F)F)c(CN(C)C)c(C#N)c3c2=O)c2sc(C)c(C(=O)O)c2n1 [compound 670] in terms of pIC50 is 7.74

The reported value for Cc1nc2cc(Cl)c(OC(F)F)c(C#N)c2c(=O)n1CCOc1ccc(Cl)cc1-c1ccnc2c(C(=O)O)csc12 [compound 546] in terms of pIC50 is 7.36

The reported value for N#Cc1cc2c(=O)n(CCOc3ccc(Cl)cc3-c3cccc4c(C(=O)O)nccc34)cnc2cn1 [compound 118] in terms of pIC50 is 6.38

* * *

Give measured pIC50 for each item. Keep answers brief.
biological target: recombinant eIF4E (Homo sapiens (Human)); assay: Fluorescence polarization competition assay for eIF4E binding potency; details: inhibition of eIF4E/EDA-m7GDP-ATTO-550 binding by 50%; Table 4B calculated values; read-out: IC50
Scale: negative log10 of molar concentration, which is what pIC50 denotes.

The reported value for `N#Cc1cc(C#N)c2c(=O)n(CCOc3ccc(Cl)cc3-c3cccc(C(=O)O)c3)c(CF)nc2c1` in terms of pIC50 is 7.89

The reported value for `Cc1nc2cnc(C3CC3)c(C#N)c2c(=O)n1CCOc1ccc(Cl)cc1-c1cc(CF)nc2c(C(=O)O)csc12` in terms of pIC50 is 7.96

The reported value for `Cc1sc2c(-c3cc(Cl)ccc3OCCn3cnc4cc(C(F)(F)F)c(CN(C)C)c(C#N)c4c3=O)ccnc2c1C(=O)O` in terms of pIC50 is 7.48

The reported value for `Cc1nc2ccc(C(F)F)c(C#N)c2c(=O)n1CCOc1ccc(Cl)cc1-c1cccc(C(=O)O)c1` in terms of pIC50 is 7.60

The reported value for Cc1cc(-c2cc(Cl)ccc2OCCn2c(C)nc3cnc(C4CCCC4(F)F)c(C#N)c3c2=O)c2scc(C(=O)O)c2n1 (centres unmarked) in terms of pIC50 is 7.65

* * *

biological target: recombinant eIF4E (Homo sapiens (Human), UniProt P06730); test: Fluorescence polarization competition assay for eIF4E binding potency; conditions: fluorescence polarization competition, 75 nM recombinant eIF4E, 20 nM EDA-m7GDP-ATTO-550; IC50 class; read-out: elF4E FP
Give measured IC50 for each item. Keep answers brief.

The reported value for `Cn1cc(-c2cc(Cl)ccc2OCCn2cnc3cnc(C#N)cc3c2=O)cc1C(=O)O` in terms of IC50 is > 1000 nM

The reported value for `Cc1nc2cc(C(F)(F)F)c(CC3CN(CC(F)(F)F)C3)c(C#N)c2c(=O)n1CCOc1ccc(Cl)cc1-c1ccnc2c(C(=O)O)csc12` in terms of IC50 is 50 to 1000 nM

The reported value for `Cc1nc2cncc(C#N)c2c(=O)n1CCOc1ccc(Cl)cc1-c1ccc(C(=O)O)c(C(=O)O)c1` in terms of IC50 is < 50 nM

The reported value for `Cc1nc2cnc(N(C)C3CCN(CC(F)F)CC3)c(C#N)c2c(=O)n1CC#Cc1ccc(Cl)cc1-c1ccnc2c(C(=O)O)csc12` in terms of IC50 is < 50 nM

The reported value for `Cc1nc2cc(C(F)(F)F)cc(C#N)c2c(=O)n1CCOc1ccc(C#N)cc1-c1ccnc2c(C(=O)O)csc12` in terms of IC50 is < 50 nM

The reported value for `Cc1cc(-c2cc(Cl)ccc2OCCn2c(C)nc3c(C)nc(N4CCNCC4)c(C#N)c3c2=O)c2scc(C(=O)O)c2n1` in terms of IC50 is < 50 nM

The reported value for `Cc1cc(-c2cc(Cl)ccc2C#CCn2c(C)nc3cc(C(F)(F)F)c(CN(C)C)c(C#N)c3c2=O)c2scc(C(=O)O)c2n1` in terms of IC50 is < 50 nM

The reported value for `CSc1cc(C(=O)O)cc(-c2cc(Cl)ccc2OCCn2cnc3cnc(C#N)cc3c2=O)c1` in terms of IC50 is > 1000 nM

The reported value for `Cc1nc2cc(C(F)(F)F)c(N3CCN(C)CC3)cc2c(=O)n1CCOc1ccc(Cl)cc1-c1ccnc2c(C(=O)O)csc12` in terms of IC50 is < 50 nM

The reported value for `Cc1nc2cc(C(F)(F)F)cc(C#N)c2c(=O)n1CCOc1ccc(Cl)cc1-c1csc2c(C(=O)O)ccnc12` in terms of IC50 is < 50 nM

The reported value for `Cc1nc2cnc(N(C)C3CCN(CC(F)(F)CF)CC3)c(C#N)c2c(=O)n1CC#Cc1ccc(Cl)cc1-c1ccnc2c(C(=O)O)csc12` in terms of IC50 is < 50 nM

The reported value for `Cc1nc2ccc(Cl)c(C#N)c2c(=O)n1CCOc1ccc(Cl)cc1-c1ccnc2c(C(=O)O)csc12` in terms of IC50 is < 50 nM

The reported value for `N#Cc1cc(C(F)(F)F)cc2ncn(CCOc3ccc(Cl)cc3-c3ccnc(C(=O)O)c3)c(=O)c12` in terms of IC50 is < 50 nM

The reported value for `Cc1cc(-c2cc(Cl)ccc2OCCn2c(C)nc3cc(C(F)(F)F)cc(C#N)c3c2=O)c2scc(C(=O)NCC(=O)O)c2n1` in terms of IC50 is 50 to 1000 nM

The reported value for `Cc1nc2cc(C(F)(F)F)cc(C#N)c2c(=O)n1C/C=C/c1ccc(Cl)cc1-c1ccnc2c(C(=O)O)csc12` in terms of IC50 is 50 to 1000 nM

The reported value for `Cc1cc(-c2cc(Cl)ccc2C#CCn2c(C)nc3cc(C(F)(F)F)cc(C#N)c3c2=O)c2scc(C(=O)O)c2n1` in terms of IC50 is < 50 nM

The reported value for `C#Cc1c(C(=O)O)cccc1-c1cc(Cl)ccc1OCCn1cnc2cc(C(F)(F)F)cc(C#N)c2c1=O` in terms of IC50 is < 50 nM

The reported value for `Cc1nc2cc(S(C)(=O)=O)c(F)c(C#N)c2c(=O)n1CCOc1ccc(Cl)cc1-c1ccnc2c(C(=O)O)csc12` in terms of IC50 is < 50 nM

The reported value for `Cc1nc2cc(C(F)(F)F)c(C(F)F)c(C#N)c2c(=O)n1CCOc1ccc(Cl)cc1-c1cccc(C(=O)O)c1` in terms of IC50 is < 50 nM
